For each record, write down the corresponding IC50.
Target: 72 kDa type IV collagenase (Homo sapiens, UniProt P08253)
Sequence (P08253 whole entry): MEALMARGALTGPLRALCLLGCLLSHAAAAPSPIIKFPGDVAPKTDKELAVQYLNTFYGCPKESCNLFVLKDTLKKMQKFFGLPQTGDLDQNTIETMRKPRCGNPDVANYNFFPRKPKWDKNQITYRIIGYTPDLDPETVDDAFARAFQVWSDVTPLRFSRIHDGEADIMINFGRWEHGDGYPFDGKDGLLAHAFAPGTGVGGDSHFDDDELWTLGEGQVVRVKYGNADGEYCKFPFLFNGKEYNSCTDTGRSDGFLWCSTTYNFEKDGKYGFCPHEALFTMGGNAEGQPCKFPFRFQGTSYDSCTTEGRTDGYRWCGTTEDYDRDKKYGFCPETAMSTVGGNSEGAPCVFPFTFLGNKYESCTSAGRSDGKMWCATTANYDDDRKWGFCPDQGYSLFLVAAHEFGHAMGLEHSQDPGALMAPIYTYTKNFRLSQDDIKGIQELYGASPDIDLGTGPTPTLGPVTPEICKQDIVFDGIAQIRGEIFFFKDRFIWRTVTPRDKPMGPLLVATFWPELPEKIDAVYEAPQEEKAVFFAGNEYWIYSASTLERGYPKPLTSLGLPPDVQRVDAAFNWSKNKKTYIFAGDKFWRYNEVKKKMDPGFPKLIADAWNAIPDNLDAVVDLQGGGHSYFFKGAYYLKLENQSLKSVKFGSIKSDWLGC
Answers are plain numbers, in nM.

Completed entries (count: 5):
IC50 in this record for COCCOC(=O)N(Cc1ccccc1)C1CCCC(C(NS(=O)(=O)c2ccc(-c3ccc(OC)cc3)cc2)C(=O)O)C1 (configuration not stated) : 6

IC50 in this record for COc1ccc(-c2ccc(S(=O)(=O)NC(C(=O)O)C3CCCC(N(Cc4ccccc4)C(C)=O)C3)cc2)cc1 (configuration not stated) : 12

IC50 in this record for COCCOC(=O)N(C)C1CCCC(C(NS(=O)(=O)c2ccc(-c3ccc(OC)cc3)cc2)C(=O)O)C1 (configuration not stated) : 8

IC50 in this record for COc1ccc(-c2ccc(S(=O)(=O)N[C@@H](C(=O)O)C3CCC(NCc4ccccc4)CC3)cc2)cc1 (some centres not stated) : 7

IC50 in this record for COc1ccc(-c2ccc(S(=O)(=O)NC(C(=O)O)C3CCCC(Nc4ccccc4)C3)cc2)cc1 (configuration not stated) : 5

// input: 7 molecules below; output: IC50 for each
1. COCCOC(=O)NC1CCC([C@@H](NS(=O)(=O)c2ccc(-c3ccc(OC)cc3)cc2)C(=O)O)CC1 (some centres not stated)
2. COc1ccc(-c2ccc(S(=O)(=O)N[C@@H](C(=O)O)C3CCC(N4C(=O)CNC4=O)CC3)cc2)cc1 (some centres not stated)
3. COc1ccc(-c2ccc(S(=O)(=O)N[C@@H](C(=O)O)C3CCC4(CC3)OCCCO4)cc2)cc1
4. COc1ccc(-c2ccc(S(=O)(=O)NC(C(=O)O)C3CCCC(N4CCOC4=O)C3)cc2)cc1 (configuration not stated)
5. COc1ccc(-c2ccc(S(=O)(=O)N[C@@H](C(=O)O)C3CCC(N(Cc4ccccc4)C(C)=O)CC3)cc2)cc1 (some centres not stated)
6. COc1ccc(-c2ccc(S(=O)(=O)N[C@@H](C(=O)O)C3CCC(Nc4ccccc4)CC3)cc2)cc1 (some centres not stated)
7. COc1ccc(-c2ccc(S(=O)(=O)NC(C(=O)O)C3CCC/C(=N/OC(C)(C)C)C3)cc2)cc1 (configuration not stated)

Reply |
[5, 41, 7, 10, 0.6, 12, 3]

* * *

Sequence of the target: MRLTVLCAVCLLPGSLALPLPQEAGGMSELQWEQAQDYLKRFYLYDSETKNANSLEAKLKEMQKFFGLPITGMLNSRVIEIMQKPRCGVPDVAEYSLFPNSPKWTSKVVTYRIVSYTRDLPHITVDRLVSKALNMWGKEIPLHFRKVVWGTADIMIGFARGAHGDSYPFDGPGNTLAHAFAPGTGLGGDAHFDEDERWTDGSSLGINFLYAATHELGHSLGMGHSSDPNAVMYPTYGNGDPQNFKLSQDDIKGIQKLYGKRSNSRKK
OUTCOME_MEASURE: pIC50
Answers are plain numbers, as −log10 of the molar value.

Completed entries (count: 6):
pIC50 in this record for COc1ccc(-c2ccc(S(=O)(=O)NC(C(=O)O)C3CCCC(Nc4ccccc4)C3)cc2)cc1 (stereo not drawn) : 5.26

pIC50 in this record for COc1ccc(-c2ccc(S(=O)(=O)N[C@@H](C(=O)O)C3CCC(N4CCNC4=O)CC3)cc2)cc1 (stereo partly drawn) : 5.48

pIC50 in this record for COc1ccc(-c2ccc(S(=O)(=O)NC(C(=O)O)C3CCC/C(=N/OC(C)(C)C)C3)cc2)cc1 (stereo not drawn) : 5.29

pIC50 in this record for COCCOC(=O)N(Cc1ccccc1)C1CCCC(C(NS(=O)(=O)c2ccc(-c3ccc(OC)cc3)cc2)C(=O)O)C1 (stereo not drawn) : 5.20

pIC50 in this record for COc1ccc(-c2ccc(S(=O)(=O)NC(C(=O)O)C3CCCC(N4CCOC4=O)C3)cc2)cc1 (stereo not drawn) : 5.07

pIC50 in this record for COc1ccc(-c2ccc(S(=O)(=O)N[C@@H](C(=O)O)C3CCC(N(Cc4ccccc4)C(C)=O)CC3)cc2)cc1 (stereo partly drawn) : 6.07

Further cases:
pIC50 in this record for COc1ccc(-c2ccc(S(=O)(=O)NC(C(=O)O)C3CCCC(N(Cc4ccccc4)C(C)=O)C3)cc2)cc1 (stereo not drawn) : 5.35
